# targetUnderTest: Sodium-dependent serotonin transporter (Rattus norvegicus, UniProt P31652)
# Sequence (P31652 whole entry): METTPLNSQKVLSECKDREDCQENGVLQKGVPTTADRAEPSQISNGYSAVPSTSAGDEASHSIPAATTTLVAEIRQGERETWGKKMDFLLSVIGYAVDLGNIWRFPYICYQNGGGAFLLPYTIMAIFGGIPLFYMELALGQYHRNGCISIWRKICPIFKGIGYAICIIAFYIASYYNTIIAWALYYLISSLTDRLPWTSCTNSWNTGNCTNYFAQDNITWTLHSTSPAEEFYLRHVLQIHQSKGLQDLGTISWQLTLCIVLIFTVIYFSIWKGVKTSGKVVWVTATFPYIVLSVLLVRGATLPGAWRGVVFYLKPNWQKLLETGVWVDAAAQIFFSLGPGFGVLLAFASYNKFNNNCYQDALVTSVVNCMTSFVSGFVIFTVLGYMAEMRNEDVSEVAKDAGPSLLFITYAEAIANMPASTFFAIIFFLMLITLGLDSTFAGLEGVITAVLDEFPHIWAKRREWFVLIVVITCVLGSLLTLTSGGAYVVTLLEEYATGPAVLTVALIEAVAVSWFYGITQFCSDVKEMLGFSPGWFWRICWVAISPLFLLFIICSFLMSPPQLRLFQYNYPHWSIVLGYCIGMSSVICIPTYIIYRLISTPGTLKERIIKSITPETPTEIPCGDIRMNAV
reportedEndpoint: Ki (nM)
Number only, in nM; omit the unit.

Look over these answered cases.
compound: COC(=O)C1C(c2ccc(I)cc2)CC2CCC1N2CCCCl (stereo unspecified)
targetUnderTest: Sodium-dependent serotonin transporter (Rattus norvegicus, UniProt P31652)
recordedResult: 0.32
//
compound: CC(C)OC(=O)C1C(c2ccc(I)cc2)CC2CCC1N2CCCF (stereo unspecified)
targetUnderTest: Sodium-dependent serotonin transporter (Rattus norvegicus, UniProt P31652)
recordedResult: 48.7
//
compound: COC(=O)C1C(c2ccc(I)cc2)CC2CCC1N2CCF (stereo unspecified)
targetUnderTest: Sodium-dependent serotonin transporter (Rattus norvegicus, UniProt P31652)
recordedResult: 0.14
//
compound: COC(=O)[C@@H]1C2CCC(C[C@@H]1c1ccc(I)cc1)N2CCCN1C(=O)c2ccccc2C1=O (stereo partly specified)
targetUnderTest: Sodium-dependent serotonin transporter (Rattus norvegicus, UniProt P31652)
recordedResult: 0.59
//
compound: COC(=O)C1C(c2ccc(I)cc2)CC2CCC1N2C(=O)C(C)C (stereo unspecified)
targetUnderTest: Sodium-dependent serotonin transporter (Rattus norvegicus, UniProt P31652)
recordedResult: 102
//
compound: CC(C)OC(=O)C1C(c2ccc(I)cc2)CC2CCC1N2CCF (stereo unspecified)
targetUnderTest: Sodium-dependent serotonin transporter (Rattus norvegicus, UniProt P31652)
recordedResult: 21.7
//
compound: COC(=O)[C@@H]1C2CCC(C[C@@H]1c1ccc(I)cc1)N2CC(=O)N(C)C (stereo partly specified)
targetUnderTest: Sodium-dependent serotonin transporter (Rattus norvegicus, UniProt P31652)
recordedResult: 6.4
//
compound: COC(=O)C1C(c2ccc(I)cc2)CC2CCC1N2CC1CC1 (stereo unspecified)
targetUnderTest: Sodium-dependent serotonin transporter (Rattus norvegicus, UniProt P31652)
recordedResult: 1.3

Query: Report Ki for COC(=O)C1C(c2ccc(I)cc2)CC2CCC1N2CCCOS(C)(=O)=O (stereo unspecified) tested on Sodium-dependent serotonin transporter (Rattus norvegicus, UniProt P31652).
Reply: 17.3

Query: Report Ki for COC(=O)C1C(c2ccc(I)cc2)CC2CCC1N2CC(OC)OC (stereo unspecified) tested on Sodium-dependent serotonin transporter (Rattus norvegicus, UniProt P31652).
Reply: 1.69

Query: Report Ki for COC(=O)C1C(c2ccc(I)cc2)CC2CCC1N2CC(F)F (stereo unspecified) tested on Sodium-dependent serotonin transporter (Rattus norvegicus, UniProt P31652).
Reply: 9.6

* * *

Please consider the recorded Ki for Sodium-dependent dopamine transporter (Rattus norvegicus, UniProt P23977) in what follows.
Number only, in nM; omit the unit.

Look over these answered cases.
compound: COC(=O)C1C(c2ccc(I)cc2)CC2CCC1N2CCCI (configuration not stated)
targetUnderTest: Sodium-dependent dopamine transporter (Rattus norvegicus, UniProt P23977)
Sequence (P23977 whole entry): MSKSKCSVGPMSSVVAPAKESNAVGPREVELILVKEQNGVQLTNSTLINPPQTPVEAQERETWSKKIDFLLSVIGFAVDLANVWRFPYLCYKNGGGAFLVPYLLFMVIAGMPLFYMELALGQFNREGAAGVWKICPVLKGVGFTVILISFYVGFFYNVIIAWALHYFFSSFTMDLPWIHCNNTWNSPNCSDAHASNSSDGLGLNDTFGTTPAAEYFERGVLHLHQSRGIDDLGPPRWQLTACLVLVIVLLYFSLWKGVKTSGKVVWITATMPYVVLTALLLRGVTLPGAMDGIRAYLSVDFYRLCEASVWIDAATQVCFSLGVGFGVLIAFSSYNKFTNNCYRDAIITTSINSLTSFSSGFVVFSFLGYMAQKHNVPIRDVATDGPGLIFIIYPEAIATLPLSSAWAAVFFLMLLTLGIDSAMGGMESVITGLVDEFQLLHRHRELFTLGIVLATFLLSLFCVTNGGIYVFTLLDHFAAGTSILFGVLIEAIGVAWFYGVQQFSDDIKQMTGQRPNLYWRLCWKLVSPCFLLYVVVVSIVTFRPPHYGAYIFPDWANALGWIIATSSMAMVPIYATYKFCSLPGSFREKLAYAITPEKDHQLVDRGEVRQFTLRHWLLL
Ki, nM: 38.9
//
compound: COC(=O)[C@@H]1C2CCC(C[C@@H]1c1ccc(I)cc1)N2CCCN1C(=O)c2ccccc2C1=O (some centres not stated)
targetUnderTest: Sodium-dependent dopamine transporter (Rattus norvegicus, UniProt P23977)
Ki, nM: 9.1
//
compound: CC(C)OC(=O)C1C(c2ccc(I)cc2)CC2CCC1N2CCCF (configuration not stated)
targetUnderTest: Sodium-dependent dopamine transporter (Rattus norvegicus, UniProt P23977)
Ki, nM: 1.2

Query: For COC(=O)C1C(c2ccc(I)cc2)CC2CCC1N2CCF (configuration not stated) , what is its reported Ki?
Reply: 4

Query: For COC(=O)C1C(c2ccc(I)cc2)CC2CCC1N2CC(F)F (configuration not stated) , what is its reported Ki?
Reply: 15.1

Query: For COC(=O)C1C(c2ccc(I)cc2)CC2CCC1N2CC(OC)OC (configuration not stated) , what is its reported Ki?
Reply: 6.8

Query: For CC(C)OC(=O)C1C(c2ccc(I)cc2)CC2CCC1N2CCF (configuration not stated) , what is its reported Ki?
Reply: 4.4

Query: For COC(=O)C1C(c2ccc(I)cc2)CC2CCC1N2CCCOS(C)(=O)=O (configuration not stated) , what is its reported Ki?
Reply: 36.3

Query: For COC(=O)CN1C2CCC1C(C(=O)OC)C(c1ccc(I)cc1)C2 (configuration not stated) , what is its reported Ki?
Reply: 11.9

Query: For COC(=O)C1C(c2ccc(I)cc2)CC2CCC1N2CC1CC1 (configuration not stated) , what is its reported Ki?
Reply: 4.3

Query: For COC(=O)C1C(c2ccc(I)cc2)CC2CCC1N2C (configuration not stated) , what is its reported Ki?
Reply: 1.4

Query: For COC(=O)C1C(c2ccc(I)cc2)CC2CCC1N2CCCBr (configuration not stated) , what is its reported Ki?
Reply: 2.56

Query: For COC(=O)C1C(c2ccc(I)cc2)CC2CCC1N2CCCF (configuration not stated) , what is its reported Ki?
Reply: 3.5

Query: For COC(=O)[C@@H]1C2CCC(C[C@@H]1c1ccc(I)cc1)N2CC(=O)N(C)C (some centres not stated) , what is its reported Ki?
Reply: 12.2

Query: For COC(=O)C1C(c2ccc(I)cc2)CC2CCC1N2CCCCl (configuration not stated) , what is its reported Ki?
Reply: 3.1

Query: For COC(=O)C1C(c2ccc(I)cc2)CC2CCC1N2CCCO (configuration not stated) , what is its reported Ki?
Reply: 5.39

Query: For COC(=O)C1C(c2ccc(I)cc2)CC2CCC1N2C(=O)C(C)C (configuration not stated) , what is its reported Ki?
Reply: 2100

* * *

Please consider the recorded pKi for Norepinephrine transporter (Rattus norvegicus) in what follows.
Entry type: numeric. Quantity: pKi, the -log10 of concentration in molar units.

Look over these answered cases.
compound: COC(=O)C1C(c2ccc(I)cc2)CC2CCC1N2C (stereo not drawn)
targetUnderTest: Norepinephrine transporter (Rattus norvegicus)
Sequence (Q9WTR4 whole entry): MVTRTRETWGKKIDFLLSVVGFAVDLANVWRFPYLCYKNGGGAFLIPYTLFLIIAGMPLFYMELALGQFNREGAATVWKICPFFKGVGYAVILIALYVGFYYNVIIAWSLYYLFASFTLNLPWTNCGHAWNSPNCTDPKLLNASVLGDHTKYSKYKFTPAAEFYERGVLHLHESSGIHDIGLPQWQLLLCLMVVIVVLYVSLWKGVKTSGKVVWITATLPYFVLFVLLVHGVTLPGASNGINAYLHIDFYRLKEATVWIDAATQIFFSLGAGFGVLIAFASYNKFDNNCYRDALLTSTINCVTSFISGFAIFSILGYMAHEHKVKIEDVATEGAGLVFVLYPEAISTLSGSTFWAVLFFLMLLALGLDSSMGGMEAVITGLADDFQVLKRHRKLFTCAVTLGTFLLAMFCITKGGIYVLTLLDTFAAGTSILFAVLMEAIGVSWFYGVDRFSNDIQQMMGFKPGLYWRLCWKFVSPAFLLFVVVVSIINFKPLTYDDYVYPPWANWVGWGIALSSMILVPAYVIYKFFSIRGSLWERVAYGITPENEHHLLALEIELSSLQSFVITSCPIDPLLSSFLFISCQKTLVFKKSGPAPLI
reportedEndpoint: pKi
recordedResult: 8.55
//
compound: COC(=O)[C@@H]1C2CCC(C[C@@H]1c1ccc(I)cc1)N2CC(=O)N(C)C (stereo partly drawn)
targetUnderTest: Norepinephrine transporter (Rattus norvegicus)
reportedEndpoint: pKi
recordedResult: 6.28
//
compound: COC(=O)[C@H]1[C@@H](c2ccc(F)cc2)C[C@H]2CC[C@H]1N2C
targetUnderTest: Norepinephrine transporter (Rattus norvegicus)
reportedEndpoint: pKi
recordedResult: 6.20
//
compound: COC(=O)CN1C2CCC1C(C(=O)OC)C(c1ccc(I)cc1)C2 (stereo not drawn)
targetUnderTest: Norepinephrine transporter (Rattus norvegicus)
reportedEndpoint: pKi
recordedResult: 7.54
//
compound: COC(=O)C1C(c2ccc(I)cc2)CC2CCC1N2CCCO (stereo not drawn)
targetUnderTest: Norepinephrine transporter (Rattus norvegicus)
reportedEndpoint: pKi
recordedResult: 6.66
//
compound: COC(=O)C1C(c2ccc(I)cc2)CC2CCC1N2CCF (stereo not drawn)
targetUnderTest: Norepinephrine transporter (Rattus norvegicus)
reportedEndpoint: pKi
recordedResult: 7.03
//
compound: COC(=O)C1C(c2ccc(I)cc2)CC2CCC1N2CCCF (stereo not drawn)
targetUnderTest: Norepinephrine transporter (Rattus norvegicus)
reportedEndpoint: pKi
recordedResult: 7.20
//
compound: COC(=O)C1C(c2ccc(I)cc2)CC2CCC1N2CCCCl (stereo not drawn)
targetUnderTest: Norepinephrine transporter (Rattus norvegicus)
reportedEndpoint: pKi
recordedResult: 7.02

Query: For CC(C)OC(=O)C1C(c2ccc(I)cc2)CC2CCC1N2CCCF (stereo not drawn) , what is its reported pKi?
Reply: 5.00

Query: For COC(=O)[C@@H]1C2CCC(C[C@@H]1c1ccc(I)cc1)N2CCCN1C(=O)c2ccccc2C1=O (stereo partly drawn) , what is its reported pKi?
Reply: 7.13

Query: For COC(=O)C1C(c2ccc(I)cc2)CC2CCC1N2CC1CC1 (stereo not drawn) , what is its reported pKi?
Reply: 6.70

Query: For COC(=O)C1C(c2ccc(I)cc2)CC2CCC1N2CC(OC)OC (stereo not drawn) , what is its reported pKi?
Reply: 6.96

Query: For COC(=O)C1C(c2ccc(I)cc2)CC2CCC1N2CCCBr (stereo not drawn) , what is its reported pKi?
Reply: 6.79

Query: For COC(=O)C1C(c2ccc(I)cc2)CC2CCC1N2CCCOS(C)(=O)=O (stereo not drawn) , what is its reported pKi?
Reply: 5.30

Query: For COC(=O)C1C(c2ccc(I)cc2)CC2CCC1N2CCCI (stereo not drawn) , what is its reported pKi?
Reply: 5.30

* * *

# targetUnderTest: Monoamine transporters; Norepininephrine & dopamine (Rattus norvegicus) (UniProt P23977+Q9WTR4)
# protocol: Selectivity for Dopamine and Norepinephrine transporters
# Format: protein assay
Records here are stratified by Selectivity; strata: group A: < 20; group B: ≥ 20 and < 50; group C: ≥ 50

Query: Lab log: COC(=O)C1C(c2ccc(I)cc2)CC2CCC1N2CCCF (configuration not stated) — assign Selectivity category
Reply: group A

Query: Lab log: COC(=O)[C@@H]1C2CCC(C[C@@H]1c1ccc(I)cc1)N2CCCN1C(=O)c2ccccc2C1=O (some centres not stated) — assign Selectivity category
Reply: group A

Query: Lab log: COC(=O)C1C(c2ccc(I)cc2)CC2CCC1N2CCCCl (configuration not stated) — assign Selectivity category
Reply: group B

Query: Lab log: COC(=O)C1C(c2ccc(I)cc2)CC2CCC1N2CCCBr (configuration not stated) — assign Selectivity category
Reply: group C

Query: Lab log: COC(=O)[C@@H]1C2CCC(C[C@@H]1c1ccc(I)cc1)N2CC(=O)N(C)C (some centres not stated) — assign Selectivity category
Reply: group B

Query: Lab log: COC(=O)C1C(c2ccc(I)cc2)CC2CCC1N2CCCO (configuration not stated) — assign Selectivity category
Reply: group B

Query: Lab log: CC(C)OC(=O)C1C(c2ccc(I)cc2)CC2CCC1N2CCF (configuration not stated) — assign Selectivity category
Reply: group C

Query: Lab log: COC(=O)C1C(c2ccc(I)cc2)CC2CCC1N2CCCOS(C)(=O)=O (configuration not stated) — assign Selectivity category
Reply: group C

Query: Lab log: COC(=O)C1C(c2ccc(I)cc2)CC2CCC1N2CC1CC1 (configuration not stated) — assign Selectivity category
Reply: group B

Query: Lab log: CC(C)OC(=O)C1C(c2ccc(I)cc2)CC2CCC1N2CCCF (configuration not stated) — assign Selectivity category
Reply: group C
